The measured values listed here are drawn from patent US10040781B2.

Entries and their pIC50 values follow.
experimental system: TBK1 (Homo sapiens (Human), UniProt Q9UHD2)
Sequence (Q9UHD2 whole entry): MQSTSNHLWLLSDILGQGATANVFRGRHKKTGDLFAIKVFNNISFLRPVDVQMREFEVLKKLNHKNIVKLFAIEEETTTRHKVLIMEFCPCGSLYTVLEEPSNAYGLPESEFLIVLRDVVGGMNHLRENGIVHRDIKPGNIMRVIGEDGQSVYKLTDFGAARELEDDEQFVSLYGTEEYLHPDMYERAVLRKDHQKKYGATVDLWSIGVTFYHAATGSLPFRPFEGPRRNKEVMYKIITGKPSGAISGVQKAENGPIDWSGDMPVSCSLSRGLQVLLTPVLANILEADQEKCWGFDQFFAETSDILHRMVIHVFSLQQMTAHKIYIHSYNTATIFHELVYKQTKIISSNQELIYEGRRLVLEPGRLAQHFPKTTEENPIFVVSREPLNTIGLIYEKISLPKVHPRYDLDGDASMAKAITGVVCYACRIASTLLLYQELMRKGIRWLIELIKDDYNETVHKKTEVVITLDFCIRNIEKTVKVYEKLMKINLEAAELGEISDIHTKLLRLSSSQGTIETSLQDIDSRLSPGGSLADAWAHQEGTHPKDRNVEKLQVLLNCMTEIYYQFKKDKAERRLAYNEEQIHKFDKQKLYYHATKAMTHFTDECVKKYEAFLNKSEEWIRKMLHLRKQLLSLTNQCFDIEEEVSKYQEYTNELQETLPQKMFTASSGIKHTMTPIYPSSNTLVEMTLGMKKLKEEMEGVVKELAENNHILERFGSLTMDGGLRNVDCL
assay method text: TBK1 TR-FRET enzymatic assay;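 note: phosphorylation of a biotinylated Ser/Thr peptide by purified full-length recombinant TBK1, read by TR-FRET after 240 min at 25 °C, IC50 is the geometric mean of at least four runs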
pIC50: −log10 of the molar value.

compound: C[C@H](O)C(=O)N1CC[C@H](Oc2ccc(-c3ncnc(Nc4cnn(C5CCOCC5)c4)n3)cc2C#N)[C@H](F)C1
pIC50: 8.22
--
compound: N#Cc1cc(-c2ncnc(Nc3ccc(N4CCN(C5COC5)CC4)cc3)n2)ccc1O[C@H]1CCN(C(=O)[C@@H]2CCC(=O)N2)CC1(F)F
pIC50: 8.70
--
compound: N#Cc1cc(-c2ncnc(Nc3ccc(N4CCOCC4)cc3)n2)ccc1OC1CCOCC1
pIC50: 8.70
--
compound: C[C@H](O)CN1CCN(c2ccc(Nc3ncnc(-c4ccc(O[C@H]5CCN(C(=O)[C@H](C)O)C[C@H]5F)c(C#N)c4)n3)cc2)CC1
pIC50: 8.52
--
compound: C[C@H](O)C(=O)N1CC[C@H](Oc2ccc(-c3ncnc(Nc4ccc(N5CC6(CCOCC6)C5)cc4)n3)cc2C#N)[C@H](F)C1
pIC50: 8.40
--
compound: N#Cc1cc(-c2ncnc(Nc3ccc(N4CCN(C5COC5)CC4)cc3)n2)ccc1OC1CCN(C(=O)[C@H]2CCC(=O)N2)C[C@H]1F (stereo partly shown)
pIC50: 7.19
--
compound: COc1cc(C#N)cc(-c2ncnc(Nc3ccc(N4CCN(C5COC5)CC4)cc3)n2)c1
pIC50: 7.10
